Origin of values: patent US8263777B2

pKi: −log10 of the molar value.
Observable: pKi

Which pKi is reported with c-Met (Homo sapiens, UniProt P08581) for this entry: Cn1cc(Nc2nn3c(C(F)(F)c4ccc5ncccc5c4)nnc3s2)cn1 ?
> 7.70
